tested on: Streptococcus sp.; experiment: in vitro antibacterial evaluation, MIC by broth dilution; format: cell-based; conditions: strain GC 1894; broth dilution, 18 hours at 35° C.
assay-endpoint: MIC Streptococcus pneumoniae (GC 1894)

Guide cases for MIC Streptococcus pneumoniae (GC 1894), answers given:
Retrieve MIC Streptococcus pneumoniae (GC 1894) measured for COc1cc(OC)cc(C2OCC3OC(OC4C(CO)OC(Oc5ccc(CC6NC(=O)C(C(C)c7ccccc7)NC(=O)CNC(=O)C(CO)NC(=O)C(C(O)C7CNC(=N)N7C7OC(CO)C(O)C(O)C7O)NC(=O)C(C(O)C7CNC(=N)N7)NC6=O)cc5)C(O)C4O)C(O)C(O)C3O2)c1 (stereo not shown) [Example 150] and print it.
0.12 mg/L

Retrieve MIC Streptococcus pneumoniae (GC 1894) measured for CC(c1ccccc1)C1NC(=O)CNC(=O)C(CO)NC(=O)C(C(O)C2CNC(=N)N2C2OC(CO)C(O)C(O)C2O)NC(=O)C(C(O)C2CNC(=N)N2)NC(=O)C(Cc2ccc(OC3OC(CO)C(OC4OC5COC(c6ccc(-c7cccs7)cc6)OC5C(O)C4O)C(O)C3O)cc2)NC1=O (stereo not shown) [Example 163] and print it.
<0.5 mg/L

Retrieve MIC Streptococcus pneumoniae (GC 1894) measured for CC(C1CCCCC1)C1NC(=O)CNC(=O)C(CO)NC(=O)C(C(O)C2CNC(=N)N2C2OC(CO)C(O)C(O)C2O)NC(=O)C(C(O)C2CNC(=N)N2)NC(=O)C(CC2CCC(OC3OC(CO)C(OC4OC(CO)C(O)C(O)C4O)C(O)C3O)CC2)NC1=O (stereo not shown) [Example 53a] and print it.
32 mg/L

Retrieve MIC Streptococcus pneumoniae (GC 1894) measured for CC(c1ccccc1)C1NC(=O)CNC(=O)C(CO)NC(=O)C(C(O)C2CNC(=N)N2C2OC(CO)C(O)C(O)C2O)NC(=O)C(C(O)C2CNC(=N)N2)NC(=O)C(Cc2ccc(OC3OC(CO)C(OC4OC5COC(c6ccc(-c7ccsc7)cc6)OC5C(O)C4O)C(O)C3O)cc2)NC1=O (stereo not shown) [Example 164] and print it.
<0.06 mg/L

Retrieve MIC Streptococcus pneumoniae (GC 1894) measured for CC(c1ccccc1)C1NC(=O)CNC(=O)C(CO)NC(=O)C(CC2CNC(=N)N2C2OC(CO)C(O)C(O)C2O)NC(=O)C(CC2CNC(=N)N2)NC(=O)C(Cc2ccc3oc(-c4ccc5c(c4)Cc4ccccc4-5)nc3c2)NC1=O (stereo not shown) [Example 42] and print it.
16 mg/L

Retrieve MIC Streptococcus pneumoniae (GC 1894) measured for CC(c1ccccc1)C1NC(=O)CNC(=O)C(CO)NC(=O)C(C(O)C2CNC(=N)N2C2OC(CO)C(O)C(O)C2O)NC(=O)C(C(O)C2CNC(=N)N2)NC(=O)C(Cc2ccc3oc(C=C(c4ccccc4)c4ccccc4)nc3c2)NC1=O (stereo not shown) [Example 39] and print it.
8 mg/L

In the following, a different compound is considered.
Retrieve MIC Streptococcus pneumoniae (GC 1894) measured for CC(c1ccccc1)C1NC(=O)CNC(=O)C(CO)NC(=O)C(C(O)C2CNC(=N)N2C2OC(CO)C(O)C(O)C2O)NC(=O)C(C(O)C2CNC(=N)N2)NC(=O)C(Cc2ccc(OC3OC(CO)C(OC4OC5COC(c6ccc(Oc7ccc(C(C)(C)C)cc7)cc6)OC5C(O)C4O)C(O)C3O)cc2)NC1=O (stereo not shown) [Example 181] and print it.
<0.06 mg/L

----------
MIC Enterococcus avium (GC 4558) values, listed per item
system: Enterococcus sp.; assay: in vitro antibacterial evaluation, MIC by broth dilution; type: cell-based; conditions: broth dilution, 18 hours at 35° C.; strain GC 4558
Numbered stars: 1 amine (or outer) side, 2 acyl side, 3 side chain; on linkers, the order of the positions; unused ones are H or OH. Square brackets hold non-standard residues; d marks the D form. Peptide text beside a SMILES is read from it. * marks the point of attachment. ξ: configuration not given here. X6 = N=C1NCC(CC(N[*:1])C(=O)[*:2])N1C1OC(CO)C(O)C(O)C1O; ξEnduracididine(βξ-OH,4'ξ) = N=C1NCC(C(O)C(N)C(=O)O)N1; X2 = OCC1OC(OC2C(CO)OC(*)C(O)C2O)C(O)C(O)C1O; ξPhe(βξ-Me) = CC(c1ccccc1)C(N)C(=O)O
Please answer using a numeric value trailed by its unit.

Retrieve MIC Enterococcus avium (GC 4558) measured for CC(c1ccccc1)C1NC(=O)CNC(=O)C(CO)NC(=O)C(CC2CNC(=N)N2C2OC(CO)C(O)C(O)C2O)NC(=O)C(C(O)C2CNC(=N)N2)NC(=O)C(Cc2ccc(OC3OC(CO)C(OC4OC(CO)C(O)C(O)C4O)C(O)C3O)cc2)NC1=O (stereo not drawn) [Example 284b] (cyclo(G[ξPhe(βξ-Me)]Y(X2)[ξEnduracididine(βξ-OH,4'ξ)][X6]S); configuration not given here) and print it.
128 µg/mL

In the following, a different compound is considered.
Retrieve MIC Enterococcus avium (GC 4558) measured for CC(C)CC(=O)OCC1OC(OC2C(CO)OC(Oc3ccc(CC4NC(=O)C(Cc5ccccc5)NC(=O)CNC(=O)C(CO)NC(=O)C(C(O)C5CNC(=N)N5C5OC(CO)C(O)C(O)C5O)NC(=O)C(C(O)C5CNC(=N)N5)NC4=O)cc3)C(O)C2O)C(O)C(O)C1O (centres unmarked) [Example 283c] and print it.
128 µg/mL

----------
system: Staphylococcus sp.; assay: in vitro antibacterial evaluation, MIC by broth dilution; type: cell-based; details: broth dilution, 18 hours at 35° C.; strain ID-3941
assay-endpoint: MIC Coagulase Negative Staphylococcus (ID-3941) (µg/mL)
All answers are understood in µg/mL, so give the number only.

Retrieve MIC Coagulase Negative Staphylococcus (ID-3941) measured for CC(c1ccccc1)C1NC(=O)CNC(=O)C(CO)NC(=O)C(C(O)C2CNC(=N)N2C2OC(CO)C(O)C(O)C2O)NC(=O)C(C(O)C2CNC(=N)N2)NC(=O)C(Cc2ccc(OC3OC(CO)C(OC4OC(COC(=O)OCc5ccccc5)C(O)C(O)C4O)C(O)C3O)cc2)NC1=O (centres unmarked) [Example 101a] and print it.
1

----------
test system: Enterococcus sp.; test: in vitro antibacterial evaluation, MIC by broth dilution; format: cell-based; conditions: broth dilution, 18 hours at 35° C.; strain GC 4553
assay-endpoint: MIC Enterococcus faecalis (GC 4553) (µg/mL)
All answers are understood in µg/mL, so give the number only.

Guide cases for MIC Enterococcus faecalis (GC 4553), answers given:
Retrieve MIC Enterococcus faecalis (GC 4553) measured for CC(c1ccccc1)C1NC(=O)CNC(=O)C(CO)NC(=O)C(C(O)C2CNC(=N)N2C2OC(CO)C(O)C(O)C2O)NC(=O)C(C(O)C2CNC(=N)N2)NC(=O)C(Cc2ccc(OC3OC(CO)C(OC4OC5COC(Cc6ccc(Cl)cc6)OC5C(O)C4O)C(O)C3O)cc2)NC1=O (stereo not drawn) [Example 120] and print it.
1

Retrieve MIC Enterococcus faecalis (GC 4553) measured for CCOc1cc(COCC2OC(OC3C(CO)OC(Oc4ccc(CC5NC(=O)C(C(C)c6ccccc6)NC(=O)CNC(=O)C(CO)NC(=O)C(C(O)C6CNC(=N)N6C6OC(CO)C(O)C(O)C6O)NC(=O)C(C(O)C6CNC(=N)N6)NC5=O)cc4)C(O)C3O)C(O)C(O)C2O)ccc1OC (stereo not drawn) [Example 238] and print it.
32

***
Retrieve MIC Enterococcus faecalis (GC 4553) measured for CCCOc1ccc(COCC2OC(OC3C(CO)OC(Oc4ccc(CC5NC(=O)C(C(C)c6ccccc6)NC(=O)CNC(=O)C(CO)NC(=O)C(C(O)C6CNC(=N)N6C6OC(CO)C(O)C(O)C6O)NC(=O)C(C(O)C6CNC(=N)N6)NC5=O)cc4)C(O)C3O)C(O)C(O)C2O)cc1 (stereo not drawn) [Example 235] and print it.
4

Retrieve MIC Enterococcus faecalis (GC 4553) measured for COc1ccc2cc(COCC3OC(OC4C(CO)OC(Oc5ccc(CC6NC(=O)C(C(C)c7ccccc7)NC(=O)CNC(=O)C(CO)NC(=O)C(CC7CNC(=N)N7C7OC(CO)C(O)C(O)C7O)NC(=O)C(CC7CNC(=N)N7)NC6=O)cc5)C(O)C4O)C(O)C(O)C3O)ccc2c1 (stereo not drawn) [Example 245] and print it.
16

----------
system: Escherichia coli; assay: in vitro antibacterial evaluation, MIC by broth dilution; type: cell-based; conditions: 18 hours at 35° C.
MIC Escherichia coli (GC 4560) values, listed per item

Guide cases for MIC Escherichia coli (GC 4560), answers given:
Retrieve MIC Escherichia coli (GC 4560) measured for CC(c1ccccc1)C1NC(=O)CNC(=O)C(CO)NC(=O)C(C(O)C2CNC(=N)N2C2OC(CO)C(O)C(O)C2O)NC(=O)C(C(O)C2CNC(=N)N2)NC(=O)C(Cc2ccc(OC3OC(CO)C(OC4OC5COC6(CCCCCCCCCCCC6)OC5C(O)C4O)C(O)C3O)cc2)NC1=O (centres unmarked) and print it.
64 µg/mL

Retrieve MIC Escherichia coli (GC 4560) measured for CC(c1ccccc1)C1NC(=O)CNC(=O)C(CO)NC(=O)C(C(O)C2CN(Cc3ccc(C(C)(C)C)cc3)C(=N)N2C2OC(CO)C(O)C(O)C2O)NC(=O)C(C(O)C2CNC(=N)N2)NC(=O)C(Cc2ccc(OC3OC(CO)C(OC4OC(CO)C(O)C(O)C4O)C(O)C3O)cc2)NC1=O (centres unmarked) and print it.
16 µg/mL

Retrieve MIC Escherichia coli (GC 4560) measured for CC(c1ccccc1)C1NC(=O)CNC(=O)C(CO)NC(=O)C(C(O)C2CN(Cc3ccccc3)C(=N)N2C2OC(CO)C(O)C(O)C2O)NC(=O)C(C(O)C2CNC(=N)N2)NC(=O)C(Cc2ccc(OC3OC(CO)C(OC4OC(CO)C(O)C(O)C4O)C(O)C3O)cc2)NC1=O (centres unmarked) and print it.
>128 µg/mL

Retrieve MIC Escherichia coli (GC 4560) measured for CN=C1N(C)CC(C(O)C2NC(=O)C(Cc3ccc(OC4OC(CO)C(OC5OC6COC7(OC6C(O)C5O)C5CC6CC(C5)CC7C6)C(O)C4O)cc3)NC(=O)C(C(C)c3ccccc3)NC(=O)CNC(=O)C(CO)NC(=O)C(C(O)C3CN(C)C(=NC)N3C3OC(CO)C(O)C(O)C3O)NC2=O)N1C (centres unmarked) and print it.
128 µg/mL

***
Retrieve MIC Escherichia coli (GC 4560) measured for CCCCCC(=O)OCC1OC(Oc2ccc(CC3NC(=O)C(C(C)c4ccccc4)NC(=O)CNC(=O)C(CO)NC(=O)C(C(O)C4CNC(=N)N4C4OC(CO)C(O)C(O)C4O)NC(=O)C(C(O)C4CNC(=N)N4)NC3=O)cc2)C(O)C(O)C1OC1OC(CO)C(O)C(O)C1O (centres unmarked) [Example 95a] and print it.
2 µg/mL

Origin of the recorded values: patent US6914045B2
